Taken from ChEMBL document CHEMBL4507310.

# SYSTEM NAME: Na+ channel (site 2) (Rattus norvegicus, UniProt F1LQQ7+O08562+O88420+O88457+P04774+P04775+P08104+P15389+P15390+Q62968)
# ASSAY NOTES: Na+ channel (site 2) Eurofins-Cerep binding assay
# Format: protein assay
# Parameters: incubation time 60 min, incubation temperature 37°C, ligand concentration 10 nM
# SETUP CONDITIONS: rat cerebral cortex, probe [3H]batrachotoxin (10 nM), compound concentration 10 uM, read-out: % Inhibition of Control Specific Binding (Mean n=2)

SMILES	UNIT OF MEASURE	inhibition at 60 min, 10 µM
O=C(NS(=O)(=O)c1ccc(NCC2CCOCC2)c([N+](=O)[O-])c1)c1ccc(N2CCN(Cc3ccc(C(F)(F)F)cc3-c3ccc(Cl)cc3)CC2)cc1Oc1cnc2[nH]ccc2c1	%	-8.2
CO[C@H]1CC[C@H](CNc2ccc(S(=O)(=O)NC(=O)c3ccc(N4CCN(CC5=C(c6ccc(Cl)cc6)CC(C)(C)CC5)CC4)cc3Oc3cnc4[nH]ccc4c3)cc2[N+](=O)[O-])CC1	%	-2.3

###

# SYSTEM NAME: Sodium-dependent dopamine transporter (Homo sapiens)
# Sequence (Q01959 whole entry): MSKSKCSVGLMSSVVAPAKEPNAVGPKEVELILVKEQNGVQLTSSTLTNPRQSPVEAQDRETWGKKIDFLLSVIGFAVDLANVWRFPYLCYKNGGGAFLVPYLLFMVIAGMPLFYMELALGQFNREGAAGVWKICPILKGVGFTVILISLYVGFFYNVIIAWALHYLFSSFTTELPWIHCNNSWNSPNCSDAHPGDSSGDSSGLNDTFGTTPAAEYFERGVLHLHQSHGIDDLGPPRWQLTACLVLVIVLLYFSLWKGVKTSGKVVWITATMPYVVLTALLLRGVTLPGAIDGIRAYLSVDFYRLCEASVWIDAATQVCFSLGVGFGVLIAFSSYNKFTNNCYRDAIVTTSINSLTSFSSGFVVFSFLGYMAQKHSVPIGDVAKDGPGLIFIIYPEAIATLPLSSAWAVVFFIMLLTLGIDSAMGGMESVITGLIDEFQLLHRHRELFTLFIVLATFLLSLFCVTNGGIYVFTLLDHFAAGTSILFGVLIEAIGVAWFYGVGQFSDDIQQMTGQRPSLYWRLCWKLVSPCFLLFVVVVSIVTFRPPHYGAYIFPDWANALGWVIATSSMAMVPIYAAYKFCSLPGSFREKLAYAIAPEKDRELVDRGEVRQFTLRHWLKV
# ASSAY NOTES: GPCRScan assay: inhibition of DAT
# Parameters: radioligand conc. used [nm] 3.6 – 16.0, parental cells stable HEK
# SETUP CONDITIONS: read-out: Ki

SMILES	Ki, µM
O=C(NS(=O)(=O)c1ccc(NCC2CCOCC2)c([N+](=O)[O-])c1)c1ccc(N2CCN(Cc3ccc(C(F)(F)F)cc3-c3ccc(Cl)cc3)CC2)cc1Oc1cnc2[nH]ccc2c1	9.8

###

# SYSTEM NAME: L-type Ca2+ channel (diltiazem site, benzothiazepines) (Rattus norvegicus, UniProt P22002+P27732+Q02485)
# ASSAY NOTES: Ca2+ channel (L, diltiazem site) (benzothiazepines) Eurofins-Cerep binding assay
# Format: protein assay
# Parameters: incubation time 120 min, incubation temperature RT, ligand concentration 15 nM
# SETUP CONDITIONS: rat cerebral cortex, probe [3H]diltiazem (15 nM), compound concentration 10 uM, read-out: % Inhibition of Control Specific Binding (Mean n=2)
List of inhibition at 120 min, 10 µM values.

COMPOUND	inhibition at 120 min, 10 µM (%)
O=C(NS(=O)(=O)c1ccc(NCC2CCOCC2)c([N+](=O)[O-])c1)c1ccc(N2CCN(Cc3ccc(C(F)(F)F)cc3-c3ccc(Cl)cc3)CC2)cc1Oc1cnc2[nH]ccc2c1 [A-1210227]	-124
CO[C@H]1CC[C@H](CNc2ccc(S(=O)(=O)NC(=O)c3ccc(N4CCN(CC5=C(c6ccc(Cl)cc6)CC(C)(C)CC5)CC4)cc3Oc3cnc4[nH]ccc4c3)cc2[N+](=O)[O-])CC1 [A-1211212]	-6.2

###

# SYSTEM NAME: D(3) dopamine receptor (Homo sapiens, UniProt P35462)
# Sequence (P35462 whole entry): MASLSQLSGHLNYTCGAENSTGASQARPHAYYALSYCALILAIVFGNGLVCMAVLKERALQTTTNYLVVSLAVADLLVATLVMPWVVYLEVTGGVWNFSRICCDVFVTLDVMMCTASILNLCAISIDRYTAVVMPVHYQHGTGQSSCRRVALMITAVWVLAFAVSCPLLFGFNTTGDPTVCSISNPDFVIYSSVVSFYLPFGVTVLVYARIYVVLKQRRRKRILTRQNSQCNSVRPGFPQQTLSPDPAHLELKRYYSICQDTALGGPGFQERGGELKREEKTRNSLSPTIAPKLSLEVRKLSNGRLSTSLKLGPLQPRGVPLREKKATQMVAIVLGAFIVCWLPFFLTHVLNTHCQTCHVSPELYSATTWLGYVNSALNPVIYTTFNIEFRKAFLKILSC
pKi: −log10 of the molar value.
REPORTED PROPERTY: pKi

COMPOUND	QUANTITATIVE RESULT
O=C(NS(=O)(=O)c1ccc(NCC2CCOCC2)c([N+](=O)[O-])c1)c1ccc(N2CCN(Cc3ccc(C(F)(F)F)cc3-c3ccc(Cl)cc3)CC2)cc1Oc1cnc2[nH]ccc2c1 [A-1210227]	5.00

###

# SYSTEM NAME: MAO-B (amine oxidase [flavin-containing] B) (Homo sapiens)
# Sequence (P27338 whole entry): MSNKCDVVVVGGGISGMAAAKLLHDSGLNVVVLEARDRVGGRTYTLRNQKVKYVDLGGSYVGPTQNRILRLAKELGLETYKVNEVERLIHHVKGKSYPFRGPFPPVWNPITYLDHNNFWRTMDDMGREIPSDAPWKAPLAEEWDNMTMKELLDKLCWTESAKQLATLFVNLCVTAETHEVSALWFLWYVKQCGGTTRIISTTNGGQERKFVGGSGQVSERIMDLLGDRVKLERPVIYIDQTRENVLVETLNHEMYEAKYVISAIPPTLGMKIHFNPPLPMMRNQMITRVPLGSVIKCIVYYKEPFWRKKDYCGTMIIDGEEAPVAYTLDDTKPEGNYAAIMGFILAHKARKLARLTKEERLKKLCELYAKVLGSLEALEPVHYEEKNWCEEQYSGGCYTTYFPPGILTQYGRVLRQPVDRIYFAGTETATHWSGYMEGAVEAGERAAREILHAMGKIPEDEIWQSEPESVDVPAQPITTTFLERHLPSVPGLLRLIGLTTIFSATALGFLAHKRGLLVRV
# ASSAY NOTES: MAO-B (h) recombinant enzyme Eurofins-Cerep enzyme and uptake assay
# Design: incubation time 60 min, incubation temperature 37°C, substrate/stimulus/tracer D-Luciferin derivative (4 µM)
# SETUP CONDITIONS: probe D-Luciferin derivative (4 µM), compound concentration 10 uM, read-out: % Inhibition of Control Values (Mean n=2)

COMPOUND	inhibition at 60 min, 10 µM
O=C(NS(=O)(=O)c1ccc(NCC2CCOCC2)c([N+](=O)[O-])c1)c1ccc(N2CCN(Cc3ccc(C(F)(F)F)cc3-c3ccc(Cl)cc3)CC2)cc1Oc1cnc2[nH]ccc2c1 [A-1210227]	-4.3%
CO[C@H]1CC[C@H](CNc2ccc(S(=O)(=O)NC(=O)c3ccc(N4CCN(CC5=C(c6ccc(Cl)cc6)CC(C)(C)CC5)CC4)cc3Oc3cnc4[nH]ccc4c3)cc2[N+](=O)[O-])CC1 [A-1211212]	16.9%

###

List of pKi values.
# SYSTEM NAME: Sigma intracellular receptor 2 (Homo sapiens, UniProt Q5BJF2)
# Sequence (Q5BJF2 whole entry): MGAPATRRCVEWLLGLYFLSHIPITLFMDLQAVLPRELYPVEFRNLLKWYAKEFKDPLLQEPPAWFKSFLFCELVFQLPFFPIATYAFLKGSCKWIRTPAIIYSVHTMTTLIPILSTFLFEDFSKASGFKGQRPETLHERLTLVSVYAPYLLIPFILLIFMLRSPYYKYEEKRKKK
# ASSAY NOTES: GPCRScan assay: inhibition of Sigma 2
pKi: −log10 of the molar value.

SMILES	pKi
CO[C@H]1CC[C@H](CNc2ccc(S(=O)(=O)NC(=O)c3ccc(N4CCN(CC5=C(c6ccc(Cl)cc6)CC(C)(C)CC5)CC4)cc3Oc3cnc4[nH]ccc4c3)cc2[N+](=O)[O-])CC1	5.83
O=C(NS(=O)(=O)c1ccc(NCC2CCOCC2)c([N+](=O)[O-])c1)c1ccc(N2CCN(Cc3ccc(C(F)(F)F)cc3-c3ccc(Cl)cc3)CC2)cc1Oc1cnc2[nH]ccc2c1	5.08
